The compounds below have reported pKd for MARK1.
pKd: −log10 of the molar value.

Fill in pKd for record Cc1ccccc1Cn1ccn2c(=O)cc(N3CCOCC3)nc12 [GSK2269905]
< 5.00

Give a short answer stating reported pKd for COc1cccc(NC(=O)Nc2ccc(C)c(-c3ccc(C(=O)Nc4ccncc4)cc3)c2)c1 [GSK1398474] .
< 5.00

Look up pKd of c1ccc(-c2ccnc3[nH]ccc23)cc1 [SB-693578] and report it.
< 5.00

---

- System: NEK5;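 also: KINOMEscan kinase panel screen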
- DETAILS: concentration: 1 μM, replicates: in singlicate; n = 1
For each entry below, report its %Inh value.
Response body: numeric value in %, unit text excluded.

// Input: "CNc1nc(-c2ccc3c(N)n[nH]c3c2)cc(N2C[C@@H](C(=O)NC3CCCCC3)OC[C@H]2C)n1" . Output its %Inh only.
11

Look up and state reported %Inh for "CNc1nc(-c2ccc3c(N)n[nH]c3c2)cc(N2C[C@@H](C(=O)Nc3ccccc3)CC[C@H]2C)n1"
7

Identify %Inh associated with the molecule COC(=O)c1cccc(NC(=O)NC2CCN(c3ccnc(Nc4ccc(OC)cc4)n3)C2)c1 (centres unmarked)
23

Respond only with %Inh recorded for "COc1cc2ncnc(Nc3cccc(Br)c3)c2cc1OC.Cl"
11

For the molecule "O=c1cc(N2CCOCC2)nc2n(Cc3ccccc3F)ccn12" , give its reported %Inh.
0

Tell us which %Inh value is on record for "Cc1cnc(N)c(/C=C/c2cncc(C(=O)NCCc3ccc(Cl)cc3Cl)c2)c1.Cl"
9

For the molecule COC(=O)C(Cc1ccccc1)NC(=O)NC1CCN(c2ccnc(Nc3ccc(F)cc3)n2)C1 (centres unmarked) , report %Inh.
12

Check the records and state %Inh for "COc1ccc(Nc2nccc(NCCNC(=O)Nc3cc(C)ccc3C)n2)cc1"
0
